Target: C-terminal domain (CTD) of human STING (Homo sapiens)
Sequence (Q86WV6 135-379 limits assumed): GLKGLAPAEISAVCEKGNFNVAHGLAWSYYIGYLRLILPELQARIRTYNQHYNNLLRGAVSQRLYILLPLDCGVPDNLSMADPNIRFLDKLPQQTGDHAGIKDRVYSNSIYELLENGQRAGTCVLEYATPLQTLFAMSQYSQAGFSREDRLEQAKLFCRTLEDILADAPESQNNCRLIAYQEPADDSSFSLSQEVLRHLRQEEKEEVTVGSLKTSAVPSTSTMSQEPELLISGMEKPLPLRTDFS
Assay: STING binding TR-FRET assay (CisBio Human STING WT Binding Kit)
Parameters: purchased CisBio 64BDSTGPEG
Settings: recombinant human STING with His-tag, D2-labeled active site probe, 60 min at room temperature
A collection of compounds and their measured pIC50
Hey, just a heads up that pIC50 is the negative log base 10 of the concentration in molar.

Examples with their reported pIC50 follow.
COMPOUND	OBSERVED MEASUREMENT
CCn1nc(C)cc1C(=O)N=c1n(C)c2cc(C(N)=O)ccc2n1CCC(CCn1c(=NC(=O)c2cc(C)nn2CC)n(C)c2cc(C(N)=O)ccc21)OCC(=O)NC1CCN(C)CC1 (centres unmarked) [Example 10]	9.06
CCn1nc(C)cc1C(=O)N=c1n(C)c2cc(C(N)=O)ccc2n1CCC(CCn1c(=NC(=O)c2cc(C)nn2CC)n(C)c2cc(C(N)=O)ccc21)OCC(=O)Nc1ccccc1 (centres unmarked) [Example 6]	9.22
CCn1nc(C)cc1C(=O)N=c1n(C)c2cc(C(N)=O)ccc2n1CCC(CCn1c(=NC(=O)c2cc(C)nn2CC)n(C)c2cc(C(N)=O)ccc21)OCC(=O)N1CCC[C@@H]1c1ccc(OC)cc1 (some centres unmarked) [Example 20]	9.02
CCn1nc(C)cc1C(=O)N=c1n(C)c2cc(C(N)=O)ccc2n1CCC(CCn1c(=NC(=O)c2cc(C)nn2CC)n(C)c2cc(C(N)=O)ccc21)OCC(=O)N1[C@H](C)COC[C@@H]1C (some centres unmarked) [Example 17]	9.27
CCn1nc(C)cc1C(=O)N=c1n(C)c2cc(C(N)=O)ccc2n1CCC(CCn1c(=NC(=O)c2cc(C)nn2CC)n(C)c2cc(C(N)=O)ccc21)OCC(=O)NC(C)C (centres unmarked) [Example 5]	9.42
CCn1nc(C)cc1C(=O)N=c1n(C)c2cc(C(N)=O)ccc2n1CCC(CCn1c(=NC(=O)c2cc(C)nn2CC)n(C)c2cc(C(N)=O)ccc21)OCC(=O)N1CCc2cc(OC)ccc2C1 (centres unmarked) [Example 9]	9.18
CCn1nc(C)cc1C(=O)N=c1n(C)c2cc(C(N)=O)ccc2n1CCC(CCn1c(=NC(=O)c2cc(C)nn2CC)n(C)c2cc(C(N)=O)ccc21)OCC(=O)N1CCOCC1 (centres unmarked) [Example 7]	9.57
CCn1nc(C)cc1C(=O)N=c1n(C)c2cc(C(N)=O)ccc2n1CCC(CCn1c(=NC(=O)c2cc(C)nn2CC)n(C)c2cc(C(N)=O)ccc21)OCC(=O)O (centres unmarked) [Example 3]	9.34
CCn1nc(C)cc1C(=O)N=c1n(C)c2cc(C(N)=O)ccc2n1CCC(CCn1c(=NC(=O)c2cc(C)nn2CC)n(C)c2cc(C(N)=O)ccc21)OCC(=O)N(Cc1ccc(OC)cc1)C1CC1 (centres unmarked) [Example 14]	9.18
CCn1nc(C)cc1C(=O)N=c1n(C)c2cc(C(N)=O)ccc2n1CCC(CCn1c(=NC(=O)c2cc(C)nn2CC)n(C)c2cc(C(N)=O)ccc21)OCC(=O)N(Cc1ccc(OC)cc1)Cc1ccccn1 (centres unmarked) [Example 19]	8.95

Pending compound:
Q. Can you look up the measured pIC50 of CCn1nc(C)cc1C(=O)N=c1n(C)c2cc(C(N)=O)ccc2n1CCC(CCn1c(=NC(=O)c2cc(C)nn2CC)n(C)c2cc(C(N)=O)ccc21)OCC(=O)N1CCC[C@H]1c1cccc(OC)c1 (some centres unmarked) [Example 11] for me?
A. 9.06
